Recorded values, source patent US20150010546A1.

target: T1, human HGF (R&D material and Peprotech material, values averaged over both) (human, UniProt P14210 32-728); experiment: SPR (Biacore T100), purified Nanobody, biphasic dissociation, kd2 fitted 300-720 s after injection start
T1 construct: As printed they differ in one letter
T1 sequence (P14210 32-728 limits assumed): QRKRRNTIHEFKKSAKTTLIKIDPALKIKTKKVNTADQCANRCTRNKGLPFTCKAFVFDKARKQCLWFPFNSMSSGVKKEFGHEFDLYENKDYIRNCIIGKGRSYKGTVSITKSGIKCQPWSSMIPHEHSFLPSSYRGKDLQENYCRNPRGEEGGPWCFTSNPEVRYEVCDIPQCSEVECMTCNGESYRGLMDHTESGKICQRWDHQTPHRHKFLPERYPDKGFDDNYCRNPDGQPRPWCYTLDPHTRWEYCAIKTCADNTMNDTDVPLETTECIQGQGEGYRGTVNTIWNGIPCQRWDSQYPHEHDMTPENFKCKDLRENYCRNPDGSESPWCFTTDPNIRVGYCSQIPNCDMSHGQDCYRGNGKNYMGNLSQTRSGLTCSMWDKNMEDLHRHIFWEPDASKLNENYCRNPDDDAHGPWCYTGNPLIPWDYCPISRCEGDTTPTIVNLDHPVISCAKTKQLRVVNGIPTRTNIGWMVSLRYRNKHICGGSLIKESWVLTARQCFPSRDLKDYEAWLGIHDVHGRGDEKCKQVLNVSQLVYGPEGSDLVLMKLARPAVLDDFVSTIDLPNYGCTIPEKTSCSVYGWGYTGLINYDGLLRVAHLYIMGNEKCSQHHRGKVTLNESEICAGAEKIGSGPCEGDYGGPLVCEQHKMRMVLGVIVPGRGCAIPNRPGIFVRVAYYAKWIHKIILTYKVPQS
measured_metric: koff (s⁻¹)

P: 9H5 (VHH, anti-HGF Nanobody clone; not shown: c-myc and His6 tags) VHH: EVQLVESGGGLVQPGGSLRLSCAASGSIFNLNPMGWYRQAPGKQRELVATVTGEGRTNYSDSVKGRFTISRDNAKNTVYLQMNSLKPEDTAVYYCNAAFWAYDDAYWGQGTQVTVSS
Q: 6H6 (VHH, anti-HGF Nanobody clone; not shown: c-myc and His6 tags) VHH: EVQLMESGGGLVQAGGSLRLSCAASGRTFSSYAMGWFRQAPGKERENVAAISSSGGYTYYPDSVKGRFTISRDTAKNTVYLQMNSLKPDDTAVYYCAGTQPNFGWQLLLLQTEYDYWGQGTQVTVSS
R: 6F6 (VHH, anti-HGF Nanobody clone; not shown: c-myc and His6 tags) VHH: EVQLVESGGGLVQPGGSLRLSCAASGSILGINAMGWYRQAPGKQRELVAVINSGGSTNYADSVKGRFTISRDNAKNTVYLQMNSLKPEDTAVYYCNADEWGDYPGQVYDYWGQGTQVTVSS
Request: Order the entries by their reported koff, beginning at the minimum. Field: ranking. Enter the labels in the order requested.
Response: P, R, Q
